Tested on: Hepatotoxicity
Test: Human drug-induced liver injury (DILI) modelling dataset from Ekins et al
READOUT: Hepatotoxicity

>>> test_value("N[C@@H](C(=O)N[C@@H]1C(=O)N2C(C(=O)O)=C(Cl)CC[C@H]12)c1ccccc1 [LORACARBEF ANHYDROUS]")
"DILI negative (test set)"
>>> test_value("CCN(CC)CCCC(C)Nc1ccnc2cc(Cl)ccc12.O=P(O)(O)O.O=P(O)(O)O (centres undefined) [CHLOROQUINE PHOSPHATE]")
"DILI negative (test set)"
>>> test_value("CCO[C@@H](Cc1ccc(OCCN2c3ccccc3Oc3ccccc32)cc1)C(=O)O")
"DILI negative (test set)"

From: ChEMBL document CHEMBL1697723
